B1: POU domain, class 5, transcription factor 1, residues 134 to 212; numbered along this chain, Q01860 (parent)
chain: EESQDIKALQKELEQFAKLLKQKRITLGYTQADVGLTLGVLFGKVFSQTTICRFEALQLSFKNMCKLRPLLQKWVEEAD

variants of: B1; assay: abundance fitness (aPCA) (normalised: wild type 0, dead -1); higher = more abundant; growth selection in yeast, the domain comes from the species named; conditions: Homo sapiens
Binning rule for recorded abundance fitness: A: < -0.2; B: ≥ -0.2 and < -0.02; C: ≥ -0.02

[[record]]
polymer_sequence = "EESQDIKALQKELEQFAKLLKQKRITLGYTQADVGLQLGVLFGKVFSQTTICRFEALQLSFKNMCKLRPLLQKWVEEAD [T37Q]"
label_class = "C"

[[record]]
polymer_sequence = "EESQDIKALQKELEQFAKLLKQKRITLGSTQADVGLTLGVLFGKVFSQTTICRFEALQLSFKNMCKLRPLLQKWVEEAD [Y29S]"
label_class = "A"

[[record]]
polymer_sequence = "EESQDIKALQKELEQFAKLLKQKRITLGYTQADVGLTLGVLFGKVFSQTTICRFEALQLSFMNMCKLRPLLQKWVEEAD [K62M]"
label_class = "C"

[[record]]
polymer_sequence = "EESQDIKTLQKELEQFAKLLKQKRITLGYTQADVGLTLGVLFGKVFSQTTICRFEALQLSFKNMCKLRPLLQKWVEEAD [A8T]"
label_class = "C"

[[record]]
polymer_sequence = "EESQDIKALQKELEQFAKLLKQKRITLGYTQADVGLTLGVLFGKVFSQTTICRFEALQLSFKNMCKLRPLLQKWVLEAD [E76L]"
label_class = "A"

[[record]]
polymer_sequence = "EESQDIPALQKELEQFAKLLKQKRITLGYTQADVGLTLGVLFGKVFSQTTICRFEALQLSFKNMCKLRPLLQKWVEEAD [K7P]"
label_class = "B"

[[record]]
polymer_sequence = "EESQDIKALQKELEQFVKLLKQKRITLGYTQADVGLTLGVLFGKVFSQTTICRFEALQLSFKNMCKLRPLLQKWVEEAD [A17V]"
label_class = "B"

[[record]]
polymer_sequence = "EESHDIKALQKELEQFAKLLKQKRITLGYTQADVGLTLGVLFGKVFSQTTICRFEALQLSFKNMCKLRPLLQKWVEEAD [Q4H]"
label_class = "B"

[[record]]
polymer_sequence = "EESQDIKALQKELEQFAKLLKQKRITLGYTQADVSLTLGVLFGKVFSQTTICRFEALQLSFKNMCKLRPLLQKWVEEAD [G35S]"
label_class = "C"

[[record]]
polymer_sequence = "EESQDIKALQLELEQFAKLLKQKRITLGYTQADVGLTLGVLFGKVFSQTTICRFEALQLSFKNMCKLRPLLQKWVEEAD [K11L]"
label_class = "B"

[[record]]
polymer_sequence = "EESQDIKALQKELEGFAKLLKQKRITLGYTQADVGLTLGVLFGKVFSQTTICRFEALQLSFKNMCKLRPLLQKWVEEAD [Q15G]"
label_class = "C"

[[record]]
polymer_sequence = "EESQDIKALQKELEQFAKLLKQKRITLGYTQADVGLTLGVLFGKVFSQTTICRFEALQLSFKNMCKLRPLLQKWVQEAD [E76Q]"
label_class = "B"

[[record]]
polymer_sequence = "EESQDGKALQKELEQFAKLLKQKRITLGYTQADVGLTLGVLFGKVFSQTTICRFEALQLSFKNMCKLRPLLQKWVEEAD [I6G]"
label_class = "B"

[[record]]
polymer_sequence = "EESQDIKALQKELEQFAKLLKQKRITLGYTQADVGDTLGVLFGKVFSQTTICRFEALQLSFKNMCKLRPLLQKWVEEAD [L36D]"
label_class = "C"

[[record]]
polymer_sequence = "EESQDIKALQKELEQFAKLLKQKRITLGYTQADVGLTLGWLFGKVFSQTTICRFEALQLSFKNMCKLRPLLQKWVEEAD [V40W]"
label_class = "B"

[[record]]
polymer_sequence = "EESQDIKALQKELEQFAKLLKQKRITLGYTQADVGLTLGVLFGKVFSQTTICRFEALQLSFKNMCKLRPLLQKWVHEAD [E76H]"
label_class = "B"

[[record]]
polymer_sequence = "EESQDIKALQKELEQFAKLLKQKRITLSYTQADVGLTLGVLFGKVFSQTTICRFEALQLSFKNMCKLRPLLQKWVEEAD [G28S]"
label_class = "A"

[[record]]
polymer_sequence = "EESQDIKASQKELEQFAKLLKQKRITLGYTQADVGLTLGVLFGKVFSQTTICRFEALQLSFKNMCKLRPLLQKWVEEAD [L9S]"
label_class = "C"

[[record]]
polymer_sequence = "EESQDIKALQKELEQFAKLLKQKRITLGYTQADVGLTPGVLFGKVFSQTTICRFEALQLSFKNMCKLRPLLQKWVEEAD [L38P]"
label_class = "A"

[[record]]
polymer_sequence = "EESQDIKALQKELEQFAKLLKQKRITLGYTQADVGLTLGVLFGKDFSQTTICRFEALQLSFKNMCKLRPLLQKWVEEAD [V45D]"
label_class = "A"

[[record]]
polymer_sequence = "EESQDIKALQKELEQFAKLAKQKRITLGYTQADVGLTLGVLFGKVFSQTTICRFEALQLSFKNMCKLRPLLQKWVEEAD [L20A]"
label_class = "A"

[[record]]
polymer_sequence = "EESQDIKALQKELEQFAKCLKQKRITLGYTQADVGLTLGVLFGKVFSQTTICRFEALQLSFKNMCKLRPLLQKWVEEAD [L19C]"
label_class = "C"

[[record]]
polymer_sequence = "EESQDIKALQKELEQFAKLLKQKRITLGYTQADVGETLGVLFGKVFSQTTICRFEALQLSFKNMCKLRPLLQKWVEEAD [L36E]"
label_class = "C"

[[record]]
polymer_sequence = "EESQDIKALQKLLEQFAKLLKQKRITLGYTQADVGLTLGVLFGKVFSQTTICRFEALQLSFKNMCKLRPLLQKWVEEAD [E12L]"
label_class = "A"

[[record]]
polymer_sequence = "EESQDIKALQKELTQFAKLLKQKRITLGYTQADVGLTLGVLFGKVFSQTTICRFEALQLSFKNMCKLRPLLQKWVEEAD [E14T]"
label_class = "A"

[[record]]
polymer_sequence = "EESQDIKALQKELEQFAKLLKQKRITLGYTQADVGLTLGVLFGKVFSQTTICRFEALQLSFKNMCKLRPLLQKEVEEAD [W74E]"
label_class = "B"

[[record]]
polymer_sequence = "EESQDIKALQKELEQFAKLLKQKRITLGYTQADVGLTLGVLFGKRFSQTTICRFEALQLSFKNMCKLRPLLQKWVEEAD [V45R]"
label_class = "C"

[[record]]
polymer_sequence = "EESQDIKALQKELEQFAKLLKQKRITLGYTQADVGLTLGVLFGYVFSQTTICRFEALQLSFKNMCKLRPLLQKWVEEAD [K44Y]"
label_class = "A"

[[record]]
polymer_sequence = "EESQDIKALQKELEQFAKLLKQKRITLGYTQADVGLTLGVLFGKVLSQTTICRFEALQLSFKNMCKLRPLLQKWVEEAD [F46L]"
label_class = "C"

[[record]]
polymer_sequence = "EESQDIKALQKELEQFAKLLKQKRITLGYTQADVGLTLGVLFGKVFSQTTICRFEALQLSFKNMCSLRPLLQKWVEEAD [K66S]"
label_class = "C"

[[record]]
polymer_sequence = "EESQDIKALQKELEQFAKLLKQKRITLGYTQADVGLYLGVLFGKVFSQTTICRFEALQLSFKNMCKLRPLLQKWVEEAD [T37Y]"
label_class = "B"

[[record]]
polymer_sequence = "EESQDIKALQKELEQFAKLLKQKRITLGYTQADVGLTLGVLDGKVFSQTTICRFEALQLSFKNMCKLRPLLQKWVEEAD [F42D]"
label_class = "A"

[[record]]
polymer_sequence = "EESQDIKALQKELEQFAKLLKQKRITLGYTQADVGLTLGVLFGKVFSQTTICRFEALQLSFKNMCKLRPLLQAWVEEAD [K73A]"
label_class = "B"

[[record]]
polymer_sequence = "EESQDIKALQKELEQFAKLLKQKRITLGYTQADVGLTLGVLFGKVFSQTTICRFEALQLSFKNWCKLRPLLQKWVEEAD [M64W]"
label_class = "A"

[[record]]
polymer_sequence = "EESQDIKALQKELEQFAKLLKQKRITLGYTQADVGLTLGVLFGKVFSQTTIARFEALQLSFKNMCKLRPLLQKWVEEAD [C52A]"
label_class = "C"

[[record]]
polymer_sequence = "EESQDIKALQKELEQFAKQLKQKRITLGYTQADVGLTLGVLFGKVFSQTTICRFEALQLSFKNMCKLRPLLQKWVEEAD [L19Q]"
label_class = "C"

[[record]]
polymer_sequence = "EESQDIKALQKELEQFAKLLKQKRITLGLTQADVGLTLGVLFGKVFSQTTICRFEALQLSFKNMCKLRPLLQKWVEEAD [Y29L]"
label_class = "B"

[[record]]
polymer_sequence = "EESQDIKATQKELEQFAKLLKQKRITLGYTQADVGLTLGVLFGKVFSQTTICRFEALQLSFKNMCKLRPLLQKWVEEAD [L9T]"
label_class = "B"

[[record]]
polymer_sequence = "EESQDIKALQKELEQFAKLLKQKRITLGYTQADVGLTLGVLFGKVFSQTTICRFEALQLSFKNMCKLRPLLQKWVMEAD [E76M]"
label_class = "C"

[[record]]
polymer_sequence = "EESQDIKALQKELEQFAKLLKQKRITLGYTQADVGLTLGVLFGKVFTQTTICRFEALQLSFKNMCKLRPLLQKWVEEAD [S47T]"
label_class = "B"

[[record]]
polymer_sequence = "EESQDIKALQKELEQFAKLLKQKRITLGYTQADVGLTLGVLFGKVFSQTTICRFMALQLSFKNMCKLRPLLQKWVEEAD [E55M]"
label_class = "A"

[[record]]
polymer_sequence = "EESQDIKALQKELEQFAKLLKQKRITLGYTQADVGLTLGVLFGKVFSQTTICRFEALQLSFKNMCKLSPLLQKWVEEAD [R68S]"
label_class = "A"

[[record]]
polymer_sequence = "EESQDIKALQKELEQFAKLLKQKRITLGYTQADVGLTLGVLFGKVFSQTTICRFEALQLSFKTMCKLRPLLQKWVEEAD [N63T]"
label_class = "A"

